Molecular target: 17β-hydroxysteroid dehydrogenase type 1 (17β-HSD type 1) (Homo sapiens)
Construct: expressed in transfected cells; host or cells: MCF-7
Sequence (P14061 1-328): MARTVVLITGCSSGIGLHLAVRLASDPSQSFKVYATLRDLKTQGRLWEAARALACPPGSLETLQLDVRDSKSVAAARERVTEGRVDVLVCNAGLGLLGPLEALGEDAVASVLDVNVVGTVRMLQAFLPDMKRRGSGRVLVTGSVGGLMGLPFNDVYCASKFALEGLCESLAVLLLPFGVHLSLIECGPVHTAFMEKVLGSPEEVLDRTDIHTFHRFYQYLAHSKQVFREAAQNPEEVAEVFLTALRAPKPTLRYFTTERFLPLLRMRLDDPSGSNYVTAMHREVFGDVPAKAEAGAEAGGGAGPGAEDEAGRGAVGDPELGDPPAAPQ
Experiment: Inhibition of 17β-HSD type 1 in MCF-7 cells stably expressing the isoenzyme (tritium labeled estrone conversion, HPLC)
Format: cell-based
Settings: MCF7; 1 μM test compound; MCF-7 cells expressing 17β-HSD type 1; 2 nM tritium labeled estrone; read-out: % Inhibition HSD1 1 μM
Text: Biological Testing Materials and Methods 1. Inhibition of the 17β-hydroxysteroid dehydrocienase type 1, type 2 and type 3 enzyme The compounds were screened in respect of 17β-HSD enzyme activity in vitro on established MCF-7 cell lines, each stably expressing one of the respective 17β-HSD isoenzymes. The interconversion of substrate by each isoenzyme and the 17β-HSD inhibiting activity of chemical compounds in these cell lines were detected by HPLC system. […]
assayReadout: inhibition at 1 µM (%)

1. COCCn1c(-c2cc(OC)c(OC)c(OC)c2Br)nc2sc3c(O)cccc3c2c1=O | 28.3
2. COc1c(O)cc(-c2nc3sc4c(c3c(=O)n2-c2ccccc2)CCCC4)cc1O | 26.8
3. CCOC1=C(C=O)CCc2c1sc1nc(-c3cc(OC)c(OC)c(OC)c3)n(Cc3ccccc3)c(=O)c21 | 12.5
4. Cc1nc2sc3c(c2c(=O)n1-c1ccccc1)CCCC3 | -7.5
5. CCC(C)Cn1c(-c2cc(OC)c(OC)c(OC)c2)nc2sc3c(c2c1=O)CCCC3=O (stereo not drawn) | 27.4
6. COCCn1c(-c2cccs2)nc2sc3c(c2c1=O)CCCC3=O | 14.5
7. COc1cc(-c2nc3sc4c(O)cc(C)cc4c3c(=O)n2Cc2ccccc2)c(Br)c(OC)c1OC | 17.3
8. COc1cc(-c2nc3sc4c(Sc5ccccc5)c(C=O)ccc4c3c(=O)n2Cc2ccccc2)cc(OC)c1OC | 31.9
9. CCCCn1c(-c2cc(OC)c(OC)c(OC)c2)nc2sc3c(c2c1=O)CC(C)CC3=O (stereo not drawn) | 18
10. CCCc1nc2sc3c(c2c(=O)n1Cc1ccccc1OC)CCCC3 | 16.5
11. COc1ccc(-c2nc3sc4c(c3c(=O)n2Cc2ccccc2)CCC(C=O)=C4Cl)cc1 | 8.6
12. COc1cc(-c2nc3sc4c(OC(C)=O)cccc4c3c(=O)n2Cc2ccccc2)cc(OC)c1OC | 35.4
13. CCCCn1c(-c2cc(OC)c(OC)c(OC)c2)nc2sc3c(c2c1=O)CC(C)CC3 (stereo not drawn) | 7
14. COc1cccc(-c2nc3sc4c(c3c(=O)n2Cc2ccccc2)CCC(Br)(Br)C4=O)c1 | 33.1
15. O=Cc1nc2c(c(=O)n1Cc1ccccc1)C1=C(CCCC1)S2(=O)=O | 17.6
16. CCCCn1c(-c2cccs2)nc2sc3c(c2c1=O)CCCC3 | 14.9
17. O=C1CCCc2c1sc1nc(-c3ccc(Br)s3)n(Cc3ccccc3)c(=O)c21 | 15
18. COc1cccc(-c2nc3sc4c(c3c(=O)n2Cc2ccccc2)CCCC4=O)c1 | 26.6

FYI, the data here is from patent US7524853B2.
